Source: PubChem BioAssay (NCI)

Please provide measured TGI for the entries that follow.
system: MALME-3M melanoma; assay: NCI tumour cell line growth inhibition, 48 h
Numbers only, in µM.

Please review the entries below; each comes with its answer.
CCOc1c(N=Nc2ccccc2Cl)c(-c2ccccc2)nn1C(=S)S	95.2
Cc1nnc2n1N=C(c1ccc(Cl)cc1Cl)/C(=C/c1ccc(-c3ccc([N+](=O)[O-])cc3Cl)o1)S2	56.1
C#Cc1nc2ccccc2c(=O)[nH]1	3.04
O=C1/C(=C/c2ccccc2)CN(C(=O)CCN2CCCC2)C/C1=C\c1ccccc1	11.4
C1CC[N-]CC1.CC(=N\O)/C(C)=N/O.CC(=N\O)/C(C)=N/O.OC1[CH-]CCCC1.[Co+2]	40.8
Cc1ccc(S(=O)(=O)c2nc(-c3ccccc3)oc2S(C)=O)cc1 (configuration not stated)	3.47
COC(=O)CC(NC(=O)OCc1ccccc1)C(C(=O)OCc1ccccc1)C(C)(OC)OC (configuration not stated)	80.9
O=c1cc(N/N=C/c2ccc(F)cc2)c2cc(Cl)ccc2[nH]1	54

Please state, for each entry, its recorded TGI.
1. Nc1ccc(S(=O)(=O)Nc2nc3ccccc3nc2N2CCCCCC2)cc1
2. C=CC[n+]1c2ccccc2n2cc([N+](=O)[O-])ccc21
3. CC(C)(C)CC(C)(C)c1cc(O)c(O)c(CN2CCCCC2)c1
4. COc1cnc2c(c1)C(=O)c1c-2n(CCCNCCO)c(=O)c2ccncc12
5. Cc1nn2c(/C=C3/C(=O)Nc4cc(Cl)ccc43)c(-c3ccccc3)nc2s1
6. CCN(c1cc(-c2ccc(CN3CCOCC3)cc2)cc(C(=O)NCc2c(C)cc(C)[nH]c2=O)c1C)C1CCOCC1
7. CCOC(=O)N1CCc2cc(OC)c(OC)cc2/C1=C\c1ccc(OC)c(OC)c1

A)
85.9
30.2
25.9
2.82
3.91
28.9
57.1

Provide reported TGI for each item, in the same order as listed.
1. COc1cc2c(cc1OCCCCCCN1CCN(CC(=O)Nc3ccc(Cl)cc3C(=O)c3ccccc3Cl)CC1)N=CC1CCCN1C2=O (configuration not stated)
2. C=C=C(CC(CC(=C)Br)(C(=O)OC)C(=O)OC)S(=O)(=O)c1ccccc1

A)
1: 0.361; 2: 4.11
